- Target entity: strychnineinsensitive glycine recognition site (NMDA receptor-ion channel complex) (Rattus norvegicus)
- Construct: Synaptic plasma membranes (SPM) were prepared from rat forebrain; from tissue; host or cells: rat forebrain synaptic plasma membranes
- Measurement description: Glycine binding assay, [3H]glycine, synaptic plasma membranes
pKi: −log10 of the molar value.
Property name: pKi

Qu. Endpoint output: pKi of O=C(O)c1cc2ccccc2[nH]1 [compound 13, indole-2-carboxylic acid] . Value?
Ans. < 4.00

* * *

Quick reference for pIC50 among some compounds
- Target entity: NMDA receptor (rat brain receptor expressed in Xenopus oocytes) (Rattus norvegicus, UniProt P35439)
- Construct: PolyA+ RNA (mRNA) was extracted from adult male rat cortex; expressed in transfected cells; host or cells: Xenopus laevis oocytes microinjected with rat cortex poly(A)+ RNA
- Measurement description: Xenopus oocytes injected with rat cortex mRNA, blocking of glycine effects (voltage clamp)
- Type: cell-based
- Condition description: IC50, 1.0 μM Gly, 1.0 μM glycine, 100 μM NMDA
Here pIC50 is given on a logarithmic scale as minus log10 of the concentration in mol/L.

Known pIC50 results, listed for orientation:
> print(dat)
                                   compound  property.name  measured.result
1  CC(C)OC(=O)Cc1c(C(=O)O)[nH]c2cc(Cl)ccc12 [Compound No. 35]          pIC50             5.35
2  NC(=O)Cc1c(C(=O)O)[nH]c2cc(Cl)ccc12 [compound 37, 2-carboxy-6-chloro-3-indoleacetamide]          pIC50             5.47

Qu. Endpoint output: pIC50 of O=C(O)Cc1c(C(=O)O)[nH]c2cc(Cl)ccc12 [Compound No. 6, 2-carboxy-6-chloro-3-indoleacetic acid] . Value?
Ans. 5.49

Qu. Endpoint output: pIC50 of CCOC(=O)Cc1c(C(=O)O)[nH]c2cc(Cl)ccc12 [compound 31, ethyl 2-carboxy-6-chloro-3-indoleacetate] . Value?
Ans. 5.80
